# IC50 per record follows
assay: Inhibition of human recombinant wild type fructose-1,6-bisphosphatase (F16BP)

Sample answers from the record:
- given-smiles: "CCOc1cc2nc(Cc3ccccc3)nc(Nc3cccc(-c4csc(C)n4)c3)c2cc1OCC"
  IC50: "> 10000 nM"
- given-smiles: "CCOc1cc2ncnc(Nc3cc(-c4csc(C)n4)ccc3Br)c2cc1OCC"
  IC50: "> 10000 nM"
- given-smiles: "COCCOc1cc2c(Nc3cccc(-c4csc(C)n4)c3)ncnc2cc1OC"
  IC50: "> 10000 nM"
- given-smiles: "CCOc1cc2ncnc(Nc3cccc(-c4ccco4)c3)c2cc1OCC"
  IC50: "1400 nM"
- given-smiles: "CCCOc1cc2ncnc(Nc3cccc(-c4csc(C)n4)c3)c2cc1OCC"
  IC50: "1000 nM"
- given-smiles: "COc1cc2c(Nc3cccc(-c4csc(C)n4)c3)ncnc2cc1OC(C)C"
  IC50: "2300 nM"
- given-smiles: "CCOc1cc2ncnc(Nc3cccc(-c4nc(C(N)=O)cs4)c3)c2cc1OCC"
  IC50: "830 nM"

Shifting focus to the compound that follows.
Request: Which value of IC50 has been reported for `CCOc1cc2ncnc(Nc3cccc(-c4csc(Cc5ccccc5)n4)c3)c2cc1OCC` in the records?
Result: > 10000 nM

The measurements presented in this section are drawn from ChEMBL document CHEMBL1135760.
